Assay: ATG_M_19_CIS: Attagene CIS-FACTORIAL HepG2 Assay for M19 Transcription Factor (Internal Marker) (AID 2282939)
Conditions: HepG2 Attagene CIS-FACTORIAL M19 internal marker reporter; actives raise or lower the signal
Protocol: ATG_CIS is a cell-based, multiplexed-readout assay that uses HepG2, a human liver cell line, with measurements taken at 24 hours after chemical dosing in a 24-well plate.ATG_M_19_CIS is one of 52 assay component(s) measured or calculated from the ATG_CIS assay. […] This assay endpoint, ATG_M_19_CIS, was analyzed with bidirectional fitting relative to DMSO as the negative control and baseline of activity. […]
The source made the active and inactive calls. The calls were made as follows: active = hit-call score of the fitted dose curve at least 0.9, where 1 is the maximum; inactive = score below 0.9.
Just give me one of these, please: label 1 (active), label 0 (inactive)

### Prompt How did this test come out for "O=S(=O)(O)C(F)(F)C(F)(F)C(F)(F)C(F)(F)C(F)(F)C(F)(F)C(F)(F)C(F)(F)C(F)(F)C(F)(F)F" ?
### Response label 0

### Prompt How did this test come out for "CCOC(C)=O" ?
### Response label 0

### Prompt How did this test come out for "CN(C)CCOC(c1ccccc1)c1ccccc1" ?
### Response label 0

### Prompt How did this test come out for "Clc1ccc(Nc2nnc(Cc3ccncc3)c3ccccc23)cc1" ?
### Response label 0

### Prompt How did this test come out for "CCc1cccc(CC)c1NC(=O)C(=O)O" ?
### Response label 0

### Prompt How did this test come out for "O=C1OC(=O)c2cc(-c3ccc4c(c3)C(=O)OC4=O)ccc21" ?
### Response label 0

### Prompt How did this test come out for "CC(C)(C)c1ccc(O)c(O)c1" ?
### Response label 0

### Prompt How did this test come out for "O=C1c2ccc(O)c(O)c2C(=O)c2c(O)ccc(O)c21" ?
### Response label 0

### Prompt How did this test come out for CC1CCC(CO)CC1 (stereo not drawn) ?
### Response label 0

### Prompt How did this test come out for "COC(=O)C(F)(F)C(F)(F)C(F)(F)C(F)(F)C(F)(F)F" ?
### Response label 0

### Prompt How did this test come out for "FC(F)(F)N1C(F)(F)C(F)(F)OC(F)(F)C1(F)F" ?
### Response label 0

### Prompt How did this test come out for "Cc1cc(=O)oc2cc(O)ccc12" ?
### Response label 0

### Prompt How did this test come out for "FC(F)(F)C1(F)C(F)(F)C(F)(F)C(F)(F)C1(F)F" ?
### Response label 0

### Prompt How did this test come out for c1ccc(CNc2ncnc3c2ncn3C2CCCCO2)cc1 (stereo not drawn) ?
### Response label 0

### Prompt How did this test come out for "CCCCCCCCCCCCCCCCCC[N+](C)(C)Cc1ccccc1" ?
### Response label 0

### Prompt How did this test come out for "CC(C)[C@@H]1CC[C@@H](C)C[C@H]1O" ?
### Response label 0

### Prompt How did this test come out for CCO[Si](CCC1CCC2OC2C1)(OCC)OCC (stereo not drawn) ?
### Response label 0

### Prompt How did this test come out for COC(=O)CC(C(C)=O)C(=O)OC (stereo not drawn) ?
### Response label 0

### Prompt How did this test come out for "CN(C)c1ccc(C(=C2C=CC(=[N+](C)C)C=C2)c2ccccc2)cc1" ?
### Response label 0

### Prompt How did this test come out for "CCCCc1oc2ccccc2c1C(=O)c1cc(I)c(OCCN(CC)CC)c(I)c1" ?
### Response label 1

### Prompt How did this test come out for "O=C(NO)c1ccccc1" ?
### Response label 0

### Prompt How did this test come out for "Brc1cc(Br)c(Oc2c(Br)cc(Br)c(Br)c2Br)cc1Br" ?
### Response label 0

### Prompt How did this test come out for "CCOC(=O)CN[C@@H](C(=O)N1CC[C@H]1C(=O)NCc1ccc(/C(N)=N/O)cc1)C1CCCCC1" ?
### Response label 0

### Prompt How did this test come out for "CCOCCOCC" ?
### Response label 0

### Prompt How did this test come out for "O=C(OC(=O)C(F)(F)C(F)(F)F)C(F)(F)C(F)(F)F" ?
### Response label 0

### Prompt How did this test come out for "CCCCCCCCCCCC(=O)NCCCN(C)C" ?
### Response label 0

### Prompt How did this test come out for "O=C(F)C(F)(F)C(F)(F)C(F)(F)C(=O)F" ?
### Response label 0

### Prompt How did this test come out for "CCOC=O" ?
### Response label 0

All figures here come from PubChem BioAssay (EPA / NIEHS).
